- method summary: soluble on expression in E. coli; label from the status in PepcDB or PDB records

macromolecule sequence	soluble on expression in E. coli
MSLKLVRKFARDIEVDELAICIPLEYKSACLIYELSRYTNVYAAKLDDFSTKPEVVSWLKEKGVEVKMKRDVVNAEYFLDCAAVLSRVAVKSGKERLKVVELTKTGEEYLRKMDVRMKAISLDSSTLKGTGENTHGTAFGLLDALLRLNVFLPGKKALILGFGRVGRGCARLLKSVGCDVAVWDNDETRQIEALYEGFRVEKDFTAEVVVTCTGVKGVLGKEELEEISDGSIILNMGAEMEIEPAGELIKDYGLVKEYEIAGKRYFLVADGYAANLALGSGTPIEVMDRTFSAAILALNHLSRSDFDGIIPLPHHIESTILEAIMMYEGHHHHHH	not soluble
DDEFLRGKRVLVVDDNFISRKVATGKLKKMGVSEVEQCDSGKEALRLVTEGLTQREEQGSVDKLPFDYIFMDCQMPEMDGYEATREIRKVEKSYGVRTPIIAVSGHDPGSEEARETIQAGMDAFLDKSLNQLANVIREIESKR	soluble
MSVQLKCDAVNCVYNRSHLCSAEEIEVQGGETTGGDATFCGTFSSKSLGNFVSSLGNMNYSGSLKQAVSAEPIMDPKVHCNAVNCTYNDQRYCHADQVEIRNEVSHTAEELEHHHHHH	soluble
MSGFSVYVGNAPFQTTEDDLGNYFSQAGNVSNVRIVCDRETGRPRGFAFVEFTEEAAAQRAVDQFNGVDFNGRALRVNLAQNRNN	not soluble

====

- method summary: soluble on expression in E. coli; label from the status in PepcDB or PDB records

macromolecule sequence	soluble on expression in E. coli
PRNQMPRIHASSGTTGKPTVVGYTKTDLDNWANLMARSMVGAGASPDDIVHNAYGYGLFTGGLGAHYGAERLGCTVVPASGGGTERQVQLIVDFGANVLCCTPSYALNIAEVAEQMGVSLKDAPLRVGLFGAEPWSDAMRRDLEARLGIKAVDVYGLSEIMGPGVACECH	not soluble
MTKTWEQLSAIQPIGVKMLMNSIAKERISHAYLLEGEKGTGKFATAIQMAKSFLCSQRNRVEPCHVCTNCKRIDSGNHPNLHIVKPDGLSIKKQQIHDLQEEFSKTGLEANKKVYIIEHADRMTANAANALLKFLEEPSSDTTAILLTEQSHQILNTILSRCQVVTFRPLPTESLIRRLQDEGITVSLSTLAAQLTNSFDEALTLCNDEWFAQARALVIKLCEALEKDKASIFFVQEKWGKHFGEKEQLQQGLDMLLLIYKDLLYVQLGEEDRLVFREQKEMFESFSYAQKRIVSALFNILEAKNRINANVNAQLVFEQLVLRLQEG	not soluble

====

- method summary: soluble on expression in E. coli; label from the status in PepcDB or PDB records

macromolecule sequence	soluble on expression in E. coli
MTKKDKKAKGPKMSTITTKSGESLKVFEDLHDFETYLKGETEDQEFDHVHCQLKYYPPFVLHDAHDDPEKIKETANSHSKKFVRHLHQHVEKHLLKDIKTAINKPELKFHDKKKQESFDRIVWNYGEETELNAKKFKVSVEVVCKHDGAMVDVDYKTEPLQPLI	soluble
MIVKTEEELQALKEIGYICAKVRNTMQAATKPGITTKELDNIAKELFEEYGAISAPIHDENFPGQTCISVNEEVAHGIPSKRVIREGDLVNIDVSALKNGYYADTGISFVVGESDDPMKQKVCDVATMAFENAIAKVKPGTKLSNIGKAVHNTARQNDLKVIKNLTGHGVGLSLHEAPAHVLNYFDPKDKTLLTEGMVLAIEPFISSNASFVTEGKNEWAFETSDKSFVAQIEHTVIVTKDGPILTTKIEEE	soluble
MSLGKALEIDLGNRLQALDIDGPTREILRECRPIIEKIIDEAVLDSYNKILAYPEVRDAYAGMKIEDACQAQRTHWIDDVFAGTFAEEQIRNGVEIFSKRQRQGLSLRWYFCFYSNILRCMIAAVYPQYRRDKEKLQRVIGALTRTVMFELEIASTAYMHSAQEQVAVALNDAAGQFEREGHHHHHH	soluble

====

- method summary: soluble on expression in E. coli; label from the status in PepcDB or PDB records
readout kind: soluble on expression in E. coli

macromolecule sequence	soluble on expression in E. coli
MAGTRDYDHLFKLLIIGDSGVGKSSLLLRFADNTFSENYITTIGVDFKIRTMDINGQRVKLQIWDTAGQERFRTITSTYYRGTHGVVVVYDVTNGESFGNVKRWLQEIENNCDSVQKVLVGNKCEENERRVVLESDARNYAQSMNISFFETSAKEDKNVEPMFTCITSLVLTAKLANPQSASKDQSRTGGVSLKDNSGSTNQKKKCKCG	not soluble
DIELTQSPPSLPVSLGDQVSISCRSSQSLVSNNRRNYLHWYLQKPGQSPKLVIYKVSNRFSGVPDRFSGSGSGTDFTLKISRVAAEDLGLYFCSQSSHVPLTFGSGTKLEIKR	soluble
MGSDKIHHHHHHMRKSRDANPFKAMPNILYPDELMDKAYNRSEKIAGELRTTTRGLSTPKSKIIEDNKIRTTASVISDNLLKIVEKTPSIDNLDPFYREILEIMVGSDEFKKSLAAVQWASEIVKKLGTQYSRKVKKAPSPQATSIVRKEFIGRVSSVLKQIYPNMAFLGVARNKLKNIPTVKNLPSVVIAGYPNVGKSTLLRTLTDAEPEVNSYPFTTKGLNIGYTEEGIQIIDTPGVLDRPIYERNDIELHAVVAINYLSDMILFVIDPTEFCGFTMEEQFNLLQEIRKTFNVPILVALTKMDVDEIEGLDKLEEDLGEYEVLKVSSFKKEGIADLRERLLDILDEQGLMGLLEE	not soluble
MSLKRTEISSLGEFGLIRHLTDCVRLKNPGTLKGIGDDAAVISFDEGMKALVTTDMLLEGIHFDLTYTPLKHLGYKSAIVNFSDIYAMNGTPRQLTVSIGVSARFSVEDIEQIYQGILTACDAYGVDLVGGDTSASLTGLCLSLTCIGEAREEEIVYRSGAKPTDLICVSGDLGAAYMGLQLLEREKAVYQGEKDFAPDFAGHEYILERQLKPEARKDIVEELRSAGIKPTAMMDISDGLSSELLHIAHAGKVGVRIYDDKLPIDYQTAAMAEEFNMNLSTAALNGGEDYELLFTVPLTRLDDIQRIEGIHLIGHITEEADGHLLVARDGTEITLVAQGWNAAKALNGEGHHHHHH	soluble
MGSDKIHHHHHHMSLPIIKVHWLDHSRAFRLLWLLDHLNLEYEIVPYKRDANFRAPPELKKIHPLGRSPLLEVQDRETGKKKILAESGFIFQYVLQHFDHSHVLMSEDADIADQINYYLFYVEGSLQPPLMIEFILSKVKDSGMPFPISYLARKVADKISQAYSSGEVKNQFDFVEGEISKNNGYLVDGKLSGADILMSFPLQMAFERKFAAPEDYPAISKWLKTITSEESYAASKEKARALGSNF	not soluble

Task item: Consider the sequence MHHHHHHSSGVDLGTENLYFQSMLNTSGSGTILIDLSPDDKEFQSVEEEMQSTVREHRDGGHAGGIFNRYNILKIQKVCNKKLWERYTHRRKEVSEENHNHANERMLFHGSPFVNAIIHKGFDERHAYIGGMFGAGIYFAENSSKSNQYVYGIGGGTGCPVHKDRSCYICHRQLLFCRVTLGKSFLQFSAMKMAHSPPGHHSVTGRPSVNGLALAEYVIYRGEQAYPEYLITYQIMRPEG and give its measured soluble on expression in E. coli.
Reply: soluble

Task item: Could you share which soluble on expression in E. coli value was measured for MLLFLTIILILVGGCTPKTKEVVLKNRNYVVIKEGKPALSEEDIIKLSRSLYVNKVNRPEVLRALKSLLTKRESLKYAFYRMKLYENIIVPILRSYGLPEEFKYLPIVESMYNPFAVSRSGAAGIWQLMPQTARRYGLIVRKDYDERFDVVKSTHAAAKYLRDLLEEFKNLELVLAAYNCGENCIRRNVNYNFWKERRKLPKETQNYVPLFLATLLIAQNPEYYGIHLYEPSREIAIVKVGIPMSVEDFLIMYSMNESRFRDLNPHIRGRKIPKNANVYVEERKLVKGEYLLRARGREE ?
Reply: not soluble

====

- method summary: soluble on expression in E. coli; label from the status in PepcDB or PDB records

macromolecule sequence	soluble on expression in E. coli
GSDNESDEEVAGKKSFSAQEREYIRQGKEATAVVDQILAQEENWKFEKNNEYGDTVYTIEVPFHGKTFILKTFLPCPAELVYQEVILQPERMVLWNKTVTACQILQRVEDNTLISYDVSAGAAGGVVSPRDFVNVRRIERRRDRYLSSGIATSHSAKPPTHKYVRGENGPGGMIVLKSASNPRVCTFVWILNTDLKGRLPRYLIHQSLAATMFEFAFHLRQRISELGAR	soluble
MNKPLMSKATAVWLIDNTTLSFRQIADFCGMHELEVQGIADGDVATGVKGFDPVANNQLDAIEIEKGQRDPLYKMKLKFNPAAVGEEKRRGPRYTPLSKRQDRPAAILWLVKFHPELSDGAIAKLVGTTKPTIQSIRERTHWNIGSIQPIDPVALGLCRQTELDAAVQQAARRKAAEGVVMSDDERRKLVSTEQSLSMPDEPRMPSGLEQFGRSEEEKRPADFSDADSFFNLPHGDDADEEEDEDPARAAALEHHHHHH	soluble
